# key: entry, value: Km
Test system: R_09-02
Construct: recombinant in E. coli, His6-tag purification; tetramer approx. 200 kDa; second CDS of 3264 bp r_09 insert; W82, H301, R327 conserved residues; N-terminal GH43 domain plus C-terminal beta-sandwich (CBM6-like)
Assay: released glucose, glucose oxidase kit; Michaelis-Menten fit
Format: biochemical
Conditions: pH 6.0 (20 mM sodium acetate), 34°C; read-out: K m (mM)^1
property: Km

OC[C@H]1O[C@H](O[C@H]2[C@H](O)[C@@H](O)C(O)O[C@@H]2CO)[C@H](O)[C@@H](O)[C@@H]1O (some centres unmarked) [Maltose]: 2.57 mM
OC[C@H]1O[C@H](O[C@H]2[C@H](O)[C@@H](O)[C@@H](O[C@H]3[C@H](O)[C@@H](O)[C@@H](O[C@H]4[C@H](O)[C@@H](O)C(O)O[C@@H]4CO)O[C@@H]3CO)O[C@@H]2CO)[C@H](O)[C@@H](O)[C@@H]1O (some centres unmarked) [Maltotetraose]: 0.53 mM
OC[C@H]1O[C@H](O[C@H]2[C@H](O)[C@@H](O)[C@@H](O[C@H]3[C@H](O)[C@@H](O)[C@@H](O[C@H]4[C@H](O)[C@@H](O)[C@@H](O[C@H]5[C@H](O)[C@@H](O)C(O)O[C@@H]5CO)O[C@@H]4CO)O[C@@H]3CO)O[C@@H]2CO)[C@H](O)[C@@H](O)[C@@H]1O (some centres unmarked) [Maltopentaose]: 1.64 mM
OC[C@H]1O[C@H](O[C@H]2[C@H](O)[C@@H](O)[C@@H](O[C@H]3[C@H](O)[C@@H](O)C(O)O[C@@H]3CO)O[C@@H]2CO)[C@H](O)[C@@H](O)[C@@H]1O (some centres unmarked) [Maltotriose]: 0.44 mM
OC[C@H]1O[C@@H](O[C@H]2[C@H](O)[C@@H](O)C(O)O[C@@H]2CO)[C@H](O)[C@@H](O)[C@H]1O (some centres unmarked) [Lactose]: 0.05 mM

###

Test system: R_09-02
Construct: recombinant in E. coli, His6-tag purification; tetramer approx. 200 kDa; second CDS of 3264 bp r_09 insert; W82, H301, R327 conserved residues; N-terminal GH43 domain plus C-terminal beta-sandwich (CBM6-like)
Experiment: p-nitrophenol release at […] nm; Michaelis-Menten fit
Type: biochemical
Conditions: pH 6.0 (20 mM sodium acetate), 34°C; read-out: K m (mM)^1
# key: entry, value: Km
property: Km (mM)

O=[N+]([O-])c1ccc(O[C@H]2O[C@H](CO)[C@@H](O[C@H]3O[C@H](CO)[C@@H](O)[C@H](O)[C@H]3O)[C@H](O)[C@H]2O)cc1: 9.74
O=[N+]([O-])c1ccc(O[C@@H]2OC[C@@H](O)[C@H](O)[C@H]2O)cc1: 4.4
O=[N+]([O-])c1ccc(O[C@@H]2O[C@@H](CO)[C@H](O)[C@H]2O)cc1: 0.57
O=[N+]([O-])c1ccc(O[C@H]2O[C@H](CO)[C@@H](O)[C@H](O)[C@H]2O)cc1: 4.84
O=[N+]([O-])c1ccc(O[C@@H]2OC[C@H](O)[C@H](O)[C@H]2O)cc1: 6.98
O=[N+]([O-])c1ccc(O[C@@H]2O[C@H](CO)[C@H](O)[C@H](O)[C@H]2O)cc1: 0.37

###

Tested on: R_09-02
Construct: recombinant in E. coli, His6-tag purification; tetramer approx. 200 kDa; second CDS of 3264 bp r_09 insert; W82, H301, R327 conserved residues; N-terminal GH43 domain plus C-terminal beta-sandwich (CBM6-like)
Experiment: released xylose, D-xylose assay kit; Michaelis-Menten fit
Assay type: biochemical
Conditions: pH 6.0 (20 mM sodium acetate), 34°C; read-out: K m (mM)^1
# key: entry, value: Km
property: Km (mM)

OC1[C@H](O)CO[C@@H](O[C@@H]2CO[C@@H](O[C@@H]3CO[C@@H](O[C@@H]4CO[C@@H](O[C@@H]5COC(O)[C@H](O)[C@H]5O)[C@H](O)C4O)[C@H](O)C3O)[C@H](O)C2O)[C@@H]1O (stereo partly shown): 1.58
OC1OC[C@@H](O[C@@H]2OC[C@@H](O)[C@H](O)[C@H]2O)[C@H](O)[C@H]1O (stereo partly shown): 0.012
OC1OC[C@@H](O[C@@H]2OC[C@@H](O[C@@H]3OC[C@@H](O)[C@H](O)[C@H]3O)[C@H](O)[C@H]2O)[C@H](O)[C@H]1O (stereo partly shown): 0.29
OC1OC[C@@H](O[C@@H]2OC[C@@H](O[C@@H]3OC[C@@H](O[C@@H]4OC[C@@H](O)[C@H](O)[C@H]4O)[C@H](O)[C@H]3O)[C@H](O)[C@H]2O)[C@H](O)[C@H]1O (stereo partly shown): 0.33
